Target: Thromboxane A2 receptor (Homo sapiens) (UniProt P21731)
Sequence (whole entry): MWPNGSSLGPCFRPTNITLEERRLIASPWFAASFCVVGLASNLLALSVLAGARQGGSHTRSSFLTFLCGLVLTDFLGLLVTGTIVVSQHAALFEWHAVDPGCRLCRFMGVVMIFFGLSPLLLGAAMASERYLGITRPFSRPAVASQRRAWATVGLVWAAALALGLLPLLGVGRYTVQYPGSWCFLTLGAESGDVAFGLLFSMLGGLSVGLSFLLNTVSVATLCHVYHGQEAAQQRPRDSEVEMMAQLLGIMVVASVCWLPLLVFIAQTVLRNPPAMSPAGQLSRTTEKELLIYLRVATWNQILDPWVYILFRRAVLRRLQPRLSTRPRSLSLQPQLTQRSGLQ
Assay: Antiaggregatory potency relative to TP-receptor antagonist SQ 29548
Format: functional
assayMetric: Relative potency

I: O=C(O)CCC/C=C1\C[C@H]2C[C@@H](O)[C@H](/C=N\OC(c3ccccc3)c3ccccc3)[C@H]2C1
II: O=C(O)CCC/C=C1/C[C@H]2CC[C@H](/C=N/NC(=O)Nc3ccc([N+](=O)[O-])cc3)[C@H]2C1
III: O=C(O)CCC/C=C1\C[C@H]2CC[C@H](/C=N/NC(=O)Nc3cccc(Cl)c3)[C@H]2C1
IV: O=C(O)CC/C=C1/C[C@H]2C[C@@H](O)[C@H](/C=N/NC(=O)Nc3ccc([N+](=O)[O-])cc3)[C@H]2C1
query: Please arrange the 4 compounds above from largest to smallest Relative potency value. Dear reader, please state the labels in the requested order.
result: IV, I, II, III
(IV: 8.3, I: 0.03, II: 0.01, III: 0.0007)

---

Species: Homo sapiens
Test: Compound was tested for its ability to inhibit blood platelet aggregation induced by ADP
Assay type: functional
pIC50: −log10 of the molar value.
assayMetric: pIC50

structure=O=C(O)CCC/C=C1\C[C@H]2C[C@@H](O)[C@H](/C=N/OCc3ccccc3)[C@H]2C1 assaymetric=pIC50 readoutvalue=5.70
structure=O=C(O)CCC/C=C1\C[C@H]2C[C@@H](O)[C@H](/C=N\OC(c3ccccc3)c3ccccc3)[C@H]2C1 assaymetric=pIC50 readoutvalue=6.00
structure=O=C(O)CCC/C=C1\C[C@H]2C[C@@H](O)[C@H](/C=N/OCc3ccc4ccccc4c3)[C@H]2C1 assaymetric=pIC50 readoutvalue=5.96
structure=O=C(O)CCC/C=C1\C[C@H]2C[C@@H](O)[C@H](/C=N/OCc3ccc(F)cc3)[C@H]2C1 assaymetric=pIC50 readoutvalue=5.82

---

Molecular target: UniProtKB P21731
Assay: TP receptor affinity, expressed as competition factor (CF) which is the ratio of IC50 of test to IC50 of standard
assayMetric: CF

Consider the reported CF for these molecules:
structure=O=C(O)CC/C=C1\C[C@H]2C[C@@H](O)[C@H](/C=N/NC(=O)Nc3cccc(Cl)c3)[C@H]2C1 readoutvalue=50
structure=O=C(O)CCC/C=C1/C[C@H]2C[C@@H](O)[C@H](/C=N/NC(=O)Nc3ccc(Cl)c(Cl)c3)[C@H]2C1 readoutvalue=0.1
structure=O=C(O)COC/C=C1/C[C@H]2C[C@@H](O)[C@H](/C=N/NC(=O)Nc3cccc(Cl)c3)[C@H]2C1 readoutvalue=4

A: O=C(O)CC/C=C1/C[C@H]2C[C@@H](O)[C@H](/C=N/NC(=O)Nc3cccc(Cl)c3)[C@H]2C1
B: O=C(O)COC/C=C1\C[C@H]2C[C@@H](O)[C@H](/C=N/NC(=O)Nc3cccc(Cl)c3)[C@H]2C1
C: O=C(O)CCC/C=C1\C[C@H]2C[C@@H](O)[C@H](/C=N/NC(=O)Nc3ccc([N+](=O)[O-])cc3)[C@H]2C1
D: O=C(O)CCC/C=C1\C[C@H]2CC[C@H](/C=N/NC(=O)Nc3ccccc3)[C@H]2C1
E: O=C(O)COC/C=C1\C[C@H]2C[C@@H](O)[C@H](/C=N/NC(=O)Nc3ccccc3)[C@H]2C1
query: Order these by CF, descending, and give the full ranking. Note for the reader: the ranking is given by listing the labels in the order requested.
result: E, D, B, A, C
(E: 138, D: 40, B: 18, A: 2.4, C: 0.7)

1: O=C(O)CC/C=C1/C[C@H]2C[C@@H](O)[C@H](/C=N/NC(=O)Nc3ccc([N+](=O)[O-])cc3)[C@H]2C1
2: O=C(O)CCC/C=C1\C[C@H]2CC[C@H](/C=N/NC(=O)Nc3ccc([N+](=O)[O-])cc3)[C@H]2C1
3: O=C(O)CCC/C=C1\C[C@H]2C[C@@H](O)[C@H](/C=N\OC(c3ccccc3)c3ccccc3)[C@H]2C1
4: O=C(O)CCC/C=C1\C[C@H]2CC[C@H](/C=N/NC(=O)Nc3cccc(Cl)c3)[C@H]2C1
query: rank_up(items): orders items by reported CF in ascending numerical order. Rank them, then answer with their labels in that order.
result: 1, 2, 4, 3

A: O=C(O)CCC/C=C1/C[C@H]2CC[C@H](/C=N/NC(=O)Nc3ccc([N+](=O)[O-])cc3)[C@H]2C1
B: O=C(O)COC/C=C1\C[C@H]2C[C@@H](O)[C@H](/C=N/NC(=O)Nc3ccc(Cl)c(Cl)c3)[C@H]2C1
query: Input pair: A , B . Output: entry with lower CF. Indicate your choice by writing its label.
result: A

---

Molecular target: Thromboxane A2 receptor (Homo sapiens) (UniProt P21731)
Sequence (whole entry): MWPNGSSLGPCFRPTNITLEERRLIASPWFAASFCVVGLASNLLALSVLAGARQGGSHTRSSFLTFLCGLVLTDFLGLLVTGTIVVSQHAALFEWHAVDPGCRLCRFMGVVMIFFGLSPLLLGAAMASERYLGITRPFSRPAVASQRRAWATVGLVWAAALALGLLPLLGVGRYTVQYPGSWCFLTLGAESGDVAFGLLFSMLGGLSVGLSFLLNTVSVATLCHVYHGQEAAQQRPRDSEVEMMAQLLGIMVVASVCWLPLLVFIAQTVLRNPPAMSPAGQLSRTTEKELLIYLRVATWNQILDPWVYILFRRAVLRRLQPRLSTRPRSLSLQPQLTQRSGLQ
Assay: TP receptor affinity, expressed as competition factor (CF) which is the ratio of IC50 of test to IC50 of standard
assayMetric: CF

structure=O=C(O)CC/C=C1/C[C@H]2C[C@@H](O)[C@H](/C=N/NC(=O)Nc3ccc(Cl)c(Cl)c3)[C@H]2C1 readoutvalue=0.8
structure=O=C(O)CCC/C=C1/C[C@H]2C[C@@H](O)[C@H](/C=N/OCc3ccc4ccccc4c3)[C@H]2C1 readoutvalue=90
structure=O=C(O)CCC/C=C1/C[C@H]2C[C@@H](O)[C@H](/C=N/NC(=O)Nc3ccccc3)[C@H]2C1 readoutvalue=1.5
structure=O=C(O)CCC/C=C1/C[C@H]2C[C@@H](O)[C@H](/C=N/OCc3ccccc3)[C@H]2C1 readoutvalue=470
structure=O=C(O)COC/C=C1/C[C@H]2C[C@@H](O)[C@H](/C=N/NC(=O)Nc3ccccc3)[C@H]2C1 readoutvalue=16

A: O=C(O)CC/C=C1\C[C@H]2C[C@@H](O)[C@H](/C=N/NC(=O)Nc3ccc([N+](=O)[O-])cc3)[C@H]2C1
B: O=C(O)CCC/C=C1/C[C@H]2CC[C@H](/C=N/NC(=O)Nc3ccccc3)[C@H]2C1
query: Pick one: A or B . Which one has the lower reported CF? Answer = label.
result: B
(B: 3, A: 22)

---

Target: Thromboxane A2 receptor (Homo sapiens)
Assay: Antiaggregatory potency relative to TP-receptor antagonist SQ 29548
Type: functional
assayMetric: Relative potency

A: O=C(O)CC/C=C1\C[C@H]2C[C@@H](O)[C@H](/C=N/NC(=O)Nc3ccc([N+](=O)[O-])cc3)[C@H]2C1
B: O=C(O)CCC/C=C1\C[C@H]2C[C@@H](O)[C@H](/C=N/NC(=O)Nc3ccc([N+](=O)[O-])cc3)[C@H]2C1
C: O=C(O)CCC/C=C1\C[C@H]2CC[C@H](/C=N/NC(=O)Nc3ccc([N+](=O)[O-])cc3)[C@H]2C1
D: O=C(O)CCC/C=C1\C[C@H]2CC[C@H](/C=N/NC(=O)Nc3ccccc3)[C@H]2C1
query: Arrange the above in rising order of Relative potency. Thanks in advance for listing the labels in the requested order.
result: D, C, A, B

---

Target: Thromboxane A2 receptor (Homo sapiens) (UniProt P21731)
Test: TP receptor affinity, expressed as competition factor (CF) which is the ratio of IC50 of test to IC50 of standard
assayMetric: CF

a: O=C(O)CC/C=C1\C[C@H]2C[C@@H](O)[C@H](/C=N/NC(=O)Nc3ccc(Cl)c(Cl)c3)[C@H]2C1
b: O=C(O)CCC/C=C1/C[C@H]2C[C@@H](O)[C@H](/C=N/OCc3ccc(F)cc3)[C@H]2C1
c: O=C(O)CCC/C=C1/C[C@H]2C[C@@H](O)[C@H](/C=N/NC(=O)Nc3cccc(Cl)c3)[C@H]2C1
d: O=C(O)CCC/C=C1/C[C@H]2C[C@@H](O)[C@H](/C=N/NC(=O)Nc3ccc([N+](=O)[O-])cc3)[C@H]2C1
e: O=C(O)CCC/C=C1/C[C@H]2CC[C@H](/C=N/NC(=O)Nc3ccc(Cl)c(Cl)c3)[C@H]2C1
query: Put the compounds in ascending order of CF. Answer format: the labels, in the requested order.
result: d, c, e, a, b

a: O=C(O)CC/C=C1/C[C@H]2C[C@@H](O)[C@H](/C=N/NC(=O)Nc3ccccc3)[C@H]2C1
b: O=C(O)COC/C=C1/C[C@H]2C[C@@H](O)[C@H](/C=N/NC(=O)Nc3ccc(Cl)c(Cl)c3)[C@H]2C1
query: Hey, between a and b which has a smaller measured CF? // respond with label for picked entry
result: b
